All figures here come from patent US20250195521A1.

SYSTEM_NAME: NRAS WT (Homo sapiens (Human), UniProt P01111+P62937)
Sequence (P01111 whole entry): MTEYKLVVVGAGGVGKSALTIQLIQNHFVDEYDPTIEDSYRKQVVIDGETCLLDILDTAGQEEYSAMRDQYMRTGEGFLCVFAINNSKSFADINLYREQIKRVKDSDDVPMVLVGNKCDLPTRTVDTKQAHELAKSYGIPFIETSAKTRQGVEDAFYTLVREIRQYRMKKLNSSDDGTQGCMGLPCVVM
Sequence (P62937 whole entry): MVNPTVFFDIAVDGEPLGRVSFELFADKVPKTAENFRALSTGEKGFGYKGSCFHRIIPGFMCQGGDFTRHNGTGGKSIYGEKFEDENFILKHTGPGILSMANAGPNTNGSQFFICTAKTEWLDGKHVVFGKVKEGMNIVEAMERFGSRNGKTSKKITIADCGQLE
ASSAY_INFO: Ras-Raf disruption/FRET/MOA assay (BRAF RBD, Cyclophilin A)
Format: biochemical
Experimental: Compound is present in plate wells as a 10-point 3-fold dilution series starting at a final concentration of 30 μM. After incubation at 25° C. for 3 hours, a mixture of Anti-His Eu—W1024 and anti-GST allophycocyanin is then added to assay sample wells at final concentrations of 10 nM and 50 nM, respectively, and the reaction incubated for an additional 1.5 hours. […]
MEASURED_QUANTITY: IC50

Given item CCn1c(-c2cccnc2[C@H](C)OC)c2c3cc(ccc31)-c1csc(n1)C[C@H](NC(=O)[C@H](C(C)C)N(C)C(=O)N1CCCC13CN(C)C3)C(=O)N1CCC[C@H](N1)C(=O)OCC(C)(C)C2 [Compound A545] , the value recorded as its IC50 is 10 to 100 nM

Lab note: measured IC50 of CCn1c(-c2cccnc2[C@H](C)OC)c2c3cc(ccc31)-c1csc(n1)C[C@H](NC(=O)[C@H](C(C)C)N(C)C(=O)N(C)C1(C)COC1)C(=O)N1CCC[C@H](N1)C(=O)OCC(C)(C)C2 [Compound A527] was 100 to 1000 nM

Measured IC50 of CCn1c(-c2cccnc2[C@H](C)OC)c2c3cc(ccc31)-c1csc(n1)C[C@H](NC(=O)[C@H](C(C)C)N(C)C(=O)N1CCN(C(C)=O)CC1)C(=O)N1CCC[C@H](N1)C(=O)OCC(C)(C)C2 [Compound A291] : 10 to 100 nM

Field IC50 (entry CCn1c(-c2cccnc2[C@H](C)OC)c2c3cc(ccc31)-c1csc(n1)C[C@H](NC(=O)[C@H](C(C)C)N(C)C(=O)N1CC3(CN(C)C3)C1)C(=O)N1CCC[C@H](N1)C(=O)OCC(C)(C)C2 [Compound A268] ) reads 100 to 1000 nM

Sample CCn1c(-c2cccnc2[C@H](C)OC)c2c3cc(ccc31)-c1cc(O)cc(c1)C[C@H](NC(=O)[C@H](C(C)C)N(C)C(=O)C1CCC3(CCOC3)O1)C(=O)N1CCC[C@H](N1)C(=O)OCC(C)(C)C2 (stereo partly drawn) [Compound A409] ; IC50 observed: 10 to 100 nM

Lookup result for CCn1c(-c2cccnc2[C@H](C)OC)c2c3cc(ccc31)-c1cc(O)cc(c1)C[C@H](NC(=O)[C@H](C(C)C)N(C)C(=O)[C@H]1CCC(=O)O1)C(=O)N1CCC[C@H](N1)C(=O)OCC(C)(C)C2 [Compound A405] ; measured IC50: 10 to 100 nM

The molecule listed as CCn1c(-c2cccnc2[C@H](C)OC)c2c3cc(ccc31)-c1cccc(c1)C[C@H](NC(=O)[C@H](C(C)C)N(C)C(C)=O)C(=O)N1CCC[C@H](N1)C(=O)OCC(C)(C)C2 [Compound A61] shows IC50 equal to 1000 to 10000 nM

Memo: CCn1c(-c2cccnc2[C@H](C)OC)c2c3cc(ccc31)-c1cc(c3cn[nH]c3c1)C[C@H](NC(=O)[C@H](C(C)C)N(C)C(C)=O)C(=O)N1CCC[C@H](N1)C(=O)OCC(C)(C)C2 [Compound A388] , reported IC50: 1000 to 10000 nM

Please fill in: IC50 reported for CCn1c(-c2cccnc2[C@H](C)OC)c2c3cc(ccc31)-c1csc(n1)C[C@H](NC(=O)[C@H](C(C)C)N(C)C(=O)N(C)C[C@H]1CCCN1C)C(=O)N1CCC[C@H](N1)C(=O)OCC(C)(C)C2 [Compound A473] = 100 to 1000 nM
